Experiment: In vitro inhibitory concentration against chloroquine-enhancing Plasmodium falciparum FCM29 @ concentration of 1 ug/mL
Type: functional
pIC50: −log10 of the molar value.
Measured Endpoint: pIC50

[[record]]
chem_smiles = "CCN(CC)CCCNc1ccc(Br)cc1"
meas_value = 7.02


###

Tested on: Plasmodium falciparum
Assay: In vitro inhibitory concentration against Plasmodium falciparum FCM29 at 1 ug/mL
Format: functional, organism-based
Details: Plasmodium falciparum
IC50: recorded values
Measured Endpoint: IC50 (nM)

[[record]]
chem_smiles = "CCN(CC)CCCOc1ccccc1-c1ccccc1"
target = "Plasmodium falciparum"
measured_endpoint = "IC50"
unit_descriptor = "nM"
meas_value = 53.9

[[record]]
chem_smiles = "CCN(CC)CCCOc1cccc(-c2ccccc2)c1"
target = "Plasmodium falciparum"
measured_endpoint = "IC50"
unit_descriptor = "nM"
meas_value = 101

[[record]]
chem_smiles = "CCN(CC)CCCNc1ccccc1Br"
target = "Plasmodium falciparum"
measured_endpoint = "IC50"
unit_descriptor = "nM"
meas_value = 58.2


###

Test system: Plasmodium falciparum
Test: In vitro inhibitory concentration against chloroquine-enhancing Plasmodium falciparum FCM29 at 1.36 ug/mL
Format: functional, organism-based
Measured Endpoint: IC50

[[record]]
chem_smiles = "CCN(CC)CCCNc1cccc(-c2ccccc2)c1"
target = "Plasmodium falciparum"
meas_value = "109 nM"


###

Tested on: Plasmodium falciparum
Experiment: In vitro inhibitory concentration against chloroquine-enhancing Plasmodium falciparum FCM29 at 2.5 ug/mL
Assay type: functional, organism-based
pIC50: −log10 of the molar value.
Measured Endpoint: pIC50

[[record]]
chem_smiles = "CCN(CC)CCCNc1cccc(Br)c1"
meas_value = 7.41


Cited source for all entries: ChEMBL document CHEMBL1139619
